Molecular target: Arginase-1 (Bos taurus)
Assay: Inhibition of bovine liver arginase at 1 mM using L-arginine as substrate measured after 30 mins by colder reagent based microplate reader assay relative to control
Please respond with reported inhibition for every item in the list.
Answer format: numeric, % implied, no suffix.

Q) Give the measured inhibition of `CCCCCNC(=N)NCCOC` .
A) 15

Q) Also need `COCCNC(=N)NCCCCN` , thanks.
A) 11

Q) Next compound up: `COCCNC(=N)NCCC(C)C`
A) 20

Q) Request: `COCCCC(=N)NCCCCN`
A) 14

Q) Same question for `COCC(=N)NCCC[C@H](N)C(=O)O` please.
A) 22

Q) Repeat with `C=CCCNC(=N)NCCCCN`
A) 0

Q) Then `COCCNC(=N)NCCC[C@H](N)C(=O)O` ?
A) 29

Q) What would you report for `COCCNC(=N)NCCCCC(=O)O` ?
A) 35

Q) How about `C=CCC(=N)NCCC[C@H](N)C(=O)O` ?
A) 76

Q) Follow-up item: `COCCCC(=N)NCCC[C@H](N)C(=O)O`
A) 20

Q) Next entry: `COCCC(=N)NCCC[C@H](N)C(=O)O`
A) 43

Q) Do the same for `C=CCCNC(=N)NCCC[C@H](N)C(=O)O` please
A) 70

Q) Another compound to check: `C=CCC(=N)NCCCCN`
A) 6

Q) Continue with `COCC(=N)NCCCCN`
A) 21

Q) Next compound: `COCCC(=N)NCCCCN`
A) 22

====

Molecular target: Nitric oxide synthase 1 (Homo sapiens) (UniProt P29475)
Sequence (P29475 whole entry): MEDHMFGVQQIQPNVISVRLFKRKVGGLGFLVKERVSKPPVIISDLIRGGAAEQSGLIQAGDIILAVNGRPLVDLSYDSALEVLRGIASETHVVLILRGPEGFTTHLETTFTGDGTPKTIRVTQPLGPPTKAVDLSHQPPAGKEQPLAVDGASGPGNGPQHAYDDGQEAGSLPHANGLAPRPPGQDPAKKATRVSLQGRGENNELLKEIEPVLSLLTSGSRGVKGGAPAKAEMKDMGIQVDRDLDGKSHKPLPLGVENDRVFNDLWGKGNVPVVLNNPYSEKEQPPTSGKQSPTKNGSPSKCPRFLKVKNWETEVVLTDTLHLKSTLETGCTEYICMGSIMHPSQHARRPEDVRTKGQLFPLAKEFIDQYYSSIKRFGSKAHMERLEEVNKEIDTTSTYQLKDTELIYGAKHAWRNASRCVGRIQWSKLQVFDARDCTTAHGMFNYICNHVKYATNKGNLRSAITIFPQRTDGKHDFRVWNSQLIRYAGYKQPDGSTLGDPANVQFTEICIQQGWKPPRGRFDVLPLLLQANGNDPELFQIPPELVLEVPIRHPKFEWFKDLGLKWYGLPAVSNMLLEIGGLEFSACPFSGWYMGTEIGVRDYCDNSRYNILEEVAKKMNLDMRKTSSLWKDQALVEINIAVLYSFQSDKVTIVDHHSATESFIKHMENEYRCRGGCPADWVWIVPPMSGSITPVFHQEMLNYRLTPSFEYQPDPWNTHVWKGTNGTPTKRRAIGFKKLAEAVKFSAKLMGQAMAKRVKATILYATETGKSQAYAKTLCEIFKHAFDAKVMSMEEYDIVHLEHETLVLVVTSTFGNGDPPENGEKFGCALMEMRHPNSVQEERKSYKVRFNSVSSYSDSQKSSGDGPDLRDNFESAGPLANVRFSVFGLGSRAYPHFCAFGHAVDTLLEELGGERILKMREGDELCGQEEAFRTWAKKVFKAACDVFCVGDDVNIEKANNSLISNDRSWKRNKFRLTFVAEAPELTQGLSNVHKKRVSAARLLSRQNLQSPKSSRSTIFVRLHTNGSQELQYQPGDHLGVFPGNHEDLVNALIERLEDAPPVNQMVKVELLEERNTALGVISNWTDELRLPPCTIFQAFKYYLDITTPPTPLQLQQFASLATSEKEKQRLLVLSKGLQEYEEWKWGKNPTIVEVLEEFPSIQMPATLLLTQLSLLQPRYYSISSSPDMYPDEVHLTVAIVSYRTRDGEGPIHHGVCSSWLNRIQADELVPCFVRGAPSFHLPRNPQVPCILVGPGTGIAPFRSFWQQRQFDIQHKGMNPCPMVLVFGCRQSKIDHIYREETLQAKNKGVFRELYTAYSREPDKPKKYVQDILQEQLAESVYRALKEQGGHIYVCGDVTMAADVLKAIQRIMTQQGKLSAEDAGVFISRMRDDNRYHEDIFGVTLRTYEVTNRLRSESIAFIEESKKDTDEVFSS
Assay: Inhibition of neuronal NOS (unknown origin) assessed as formation of methemoglobin from oxyhemoglobin at 1 mM using L-arginine as substrate in presence of oxyhemoglobin and NADPH by UV-vis spectrophotometry relative to control
PROPERTY_LABEL: inhibition

Q) Quick check: inhibition of `COCC(=N)NCCC[C@H](N)C(=O)O` ?
A) 93%

Q) Another compound to check: `COCCNC(=N)NCCCCN`
A) 0%

Q) Please answer likewise for `CCCCCNC(=N)NCCOC`
A) 0%

Q) What about this compound? `C=CCCNC(=N)NCCCCN`
A) 5%

Q) Now consider `COCCCC(=N)NCCC[C@H](N)C(=O)O` .
A) 35%

Q) Repeat with `COCCC(=N)NCCCCN`
A) 19%

Q) Please give the result for `COCCCC(=N)NCCCCN` too.
A) 7%

Q) Ok, now `C=CCC(=N)NCCCCN`
A) 99%

Q) Now consider `COCCCC(=N)NCC[C@H](N)C(=O)O` .
A) < 20%

Q) And what about the compound `COCCNC(=N)NCCC(C)C` ?
A) 0%

Q) For `COCC(=N)NCCCCN` then?
A) 78%

Q) One more compound: `COCCC(=N)NCCC[C@H](N)C(=O)O`
A) 65%

Q) Query `COCCNC(=N)NCCCCC(=O)O` next
A) 5%

====

Target: Nitric oxide synthase, inducible (Homo sapiens) (UniProt P35228)
Sequence (P35228 whole entry): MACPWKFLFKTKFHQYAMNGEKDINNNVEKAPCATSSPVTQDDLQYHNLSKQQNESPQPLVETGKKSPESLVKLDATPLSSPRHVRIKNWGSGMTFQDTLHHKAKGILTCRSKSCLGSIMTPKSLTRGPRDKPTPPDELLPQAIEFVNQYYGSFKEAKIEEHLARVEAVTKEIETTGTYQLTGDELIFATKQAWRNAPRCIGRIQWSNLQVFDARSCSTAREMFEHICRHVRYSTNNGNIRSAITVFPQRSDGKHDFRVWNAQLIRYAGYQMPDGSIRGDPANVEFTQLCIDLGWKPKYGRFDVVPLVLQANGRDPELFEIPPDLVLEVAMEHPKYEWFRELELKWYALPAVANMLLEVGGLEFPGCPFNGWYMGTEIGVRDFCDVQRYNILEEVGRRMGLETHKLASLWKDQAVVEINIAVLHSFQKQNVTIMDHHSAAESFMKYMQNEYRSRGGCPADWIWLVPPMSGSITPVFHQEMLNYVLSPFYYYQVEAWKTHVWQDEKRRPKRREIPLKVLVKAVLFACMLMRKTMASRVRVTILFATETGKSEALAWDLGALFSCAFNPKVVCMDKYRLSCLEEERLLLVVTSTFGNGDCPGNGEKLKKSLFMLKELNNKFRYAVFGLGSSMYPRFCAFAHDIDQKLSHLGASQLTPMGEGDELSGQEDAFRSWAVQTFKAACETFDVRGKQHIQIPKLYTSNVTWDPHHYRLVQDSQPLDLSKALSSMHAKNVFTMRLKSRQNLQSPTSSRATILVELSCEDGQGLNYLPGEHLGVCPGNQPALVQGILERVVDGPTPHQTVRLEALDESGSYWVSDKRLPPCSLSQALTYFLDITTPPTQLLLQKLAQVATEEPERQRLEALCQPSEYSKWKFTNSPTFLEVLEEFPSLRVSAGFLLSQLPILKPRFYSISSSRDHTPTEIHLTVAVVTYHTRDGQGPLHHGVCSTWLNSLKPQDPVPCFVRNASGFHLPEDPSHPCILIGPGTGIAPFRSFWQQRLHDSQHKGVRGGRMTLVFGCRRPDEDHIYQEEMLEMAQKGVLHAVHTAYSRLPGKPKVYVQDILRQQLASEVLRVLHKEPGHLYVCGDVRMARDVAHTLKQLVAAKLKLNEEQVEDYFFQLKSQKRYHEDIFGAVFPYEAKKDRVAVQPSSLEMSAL
Assay: Inhibition of iNOS (unknown origin) assessed as formation of methemoglobin from oxyhemoglobin at 1 mM using L-arginine as substrate in presence of oxyhemoglobin and NADPH by UV-vis spectrophotometry relative to control
PROPERTY_LABEL: inhibition

Q) Record request: inhibition value, item `COCCCC(=N)NCC[C@H](N)C(=O)O`
A) < 20%

Q) Same thing, different compound: `COCCCC(=N)NCCCCN`
A) 15%

Q) Try the compound `COCCNC(=N)NCCC(C)C`
A) 4%

Q) Follow-up entry: `COCCNC(=N)NCCC[C@H](N)C(=O)O`
A) 0%

Q) And the next one, `COCCC(=N)NCCC[C@H](N)C(=O)O` ?
A) 50%

Q) Entry `COCC(=N)NCCCCN` please
A) 42%

Q) And then `COCCNC(=N)NCCCCC(=O)O` , what is it?
A) 2%

Q) For `COCCCC(=N)NCCC[C@H](N)C(=O)O` then?
A) 26%

Q) One more compound: `C=CCCNC(=N)NCCCCN`
A) 23%

Q) Another compound to check: `COCCC(=N)NCCCCN`
A) 16%

Q) Also check `C=CCC(=N)NCCCCN`
A) 100%

Q) Can you handle `COCCNC(=N)NCCCCN` next?
A) 0%

Q) Same question, `COCC(=N)NCCC[C@H](N)C(=O)O` this time
A) 75%

Q) Then this compound: `CCCCCNC(=N)NCCOC`
A) 21%

====

Target: UniProtKB P29474
Sequence (whole entry): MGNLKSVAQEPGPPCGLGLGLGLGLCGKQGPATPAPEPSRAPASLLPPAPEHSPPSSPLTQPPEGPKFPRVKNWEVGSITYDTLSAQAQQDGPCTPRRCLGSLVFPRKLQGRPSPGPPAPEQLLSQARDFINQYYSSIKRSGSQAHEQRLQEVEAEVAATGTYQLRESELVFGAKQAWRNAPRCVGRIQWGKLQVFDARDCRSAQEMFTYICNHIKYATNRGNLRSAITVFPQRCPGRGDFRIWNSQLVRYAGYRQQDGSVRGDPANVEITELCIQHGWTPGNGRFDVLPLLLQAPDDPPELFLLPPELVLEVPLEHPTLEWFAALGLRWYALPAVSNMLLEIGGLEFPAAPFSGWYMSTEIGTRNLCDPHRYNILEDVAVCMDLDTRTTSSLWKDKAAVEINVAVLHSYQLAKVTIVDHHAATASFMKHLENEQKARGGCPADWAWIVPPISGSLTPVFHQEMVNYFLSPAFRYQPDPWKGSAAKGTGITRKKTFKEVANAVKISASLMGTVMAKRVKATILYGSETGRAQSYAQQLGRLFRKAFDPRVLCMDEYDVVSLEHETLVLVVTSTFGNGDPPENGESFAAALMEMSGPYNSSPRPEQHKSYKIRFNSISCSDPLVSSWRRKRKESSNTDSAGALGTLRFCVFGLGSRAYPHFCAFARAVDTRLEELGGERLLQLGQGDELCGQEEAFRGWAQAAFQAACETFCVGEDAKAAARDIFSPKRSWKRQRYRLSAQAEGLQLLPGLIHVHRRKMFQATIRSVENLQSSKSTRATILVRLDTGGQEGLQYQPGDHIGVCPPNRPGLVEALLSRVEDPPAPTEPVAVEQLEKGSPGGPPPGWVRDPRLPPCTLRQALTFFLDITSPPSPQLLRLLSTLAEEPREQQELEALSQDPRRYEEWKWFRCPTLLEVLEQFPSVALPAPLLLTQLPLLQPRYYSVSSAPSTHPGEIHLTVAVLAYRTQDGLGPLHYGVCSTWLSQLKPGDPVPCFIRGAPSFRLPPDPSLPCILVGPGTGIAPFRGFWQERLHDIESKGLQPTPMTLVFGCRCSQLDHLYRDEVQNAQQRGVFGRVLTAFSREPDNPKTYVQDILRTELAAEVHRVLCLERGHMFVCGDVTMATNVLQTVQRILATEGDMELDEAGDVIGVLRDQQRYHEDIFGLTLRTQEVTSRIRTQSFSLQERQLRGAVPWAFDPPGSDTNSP
Test: Inhibition of endothelial NOS (unknown origin) assessed as formation of methemoglobin from oxyhemoglobin at 1 mM using L-arginine as substrate in presence of oxyhemoglobin and NADPH by UV-vis spectrophotometry relative to control
PROPERTY_LABEL: inhibition (%)
Write the answer as a number in %, unit excluded.

Q) # lookup: inhibition of `CCCCCNC(=N)NCCOC`
A) 0

Q) Same lookup for `COCCCC(=N)NCCCCN` , please.
A) 36

Q) # repeat for `C=CCC(=N)NCCCCN`
A) 56

Q) Follow-up entry: `COCC(=N)NCCCCN`
A) 44

Q) `C=CCCNC(=N)NCCCCN` ?
A) 35

Q) Now consider `COCC(=N)NCCC[C@H](N)C(=O)O` .
A) 89

Q) Ok, now `COCCCC(=N)NCCC[C@H](N)C(=O)O`
A) 29

Q) Repeat with `COCCC(=N)NCCCCN`
A) 28

Q) Moving on to the next compound: `COCCNC(=N)NCCCCN`
A) 13
